A collection of molecules and their measured % Activity at 5 μM
# test.system: human GPR120 (Homo sapiens)
# Construct: host or cells: HEK293 cells coexpressing Gqi5
# Sequence (Q5NUL3 whole entry): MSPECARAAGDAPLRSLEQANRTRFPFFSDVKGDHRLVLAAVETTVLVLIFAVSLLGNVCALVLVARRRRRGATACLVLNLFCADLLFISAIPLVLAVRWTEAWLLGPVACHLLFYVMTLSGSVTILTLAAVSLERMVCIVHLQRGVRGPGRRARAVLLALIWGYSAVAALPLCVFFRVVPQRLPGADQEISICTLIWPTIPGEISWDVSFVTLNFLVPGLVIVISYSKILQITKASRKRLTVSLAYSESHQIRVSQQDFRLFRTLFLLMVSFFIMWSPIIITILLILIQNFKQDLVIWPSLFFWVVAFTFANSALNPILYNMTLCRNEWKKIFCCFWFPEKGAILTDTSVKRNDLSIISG
# test.protocol: Intracellular Ca2+ (FLIPR Calcium 4, Flexstation) assay in human GPR120 stable HEK293 cell line coexpressing Gqi5
# Type: cell-based
# run.parameters: 5 μM compound compared to the maximal activity of GW9508 at 6.7 μM (100%)
# Procedure: Human GPR120 stable cell line was purchased from Multispan Inc (26219 Eden Landing Road, Hayward, Calif. 94545). This GPR120 cell line was generated in HEK293 cells coexpressing Gqi5. […] The concentration of intracellular Ca^2+ was measured as described below. […] Compounds were dissolved in 100% DMSO and diluted to desired concentrations with assay buffer and placed in Flexstation simultaneously with the cell plate for 20 minute incubation at 37° C. prior to reading. […]
Express the result in % but write the number alone.

molecule	% Activity at 5 μM [%]
CC(Cc1cc(F)c(OCc2ccnn2-c2ccccc2)c(F)c1)C(=O)O (stereo not drawn)	64
Cc1cc(COc2c(F)cc(CCC(=O)O)cc2F)n(-c2ccccc2)n1	62
O=C(O)CCc1cc(F)c(OCc2snnc2-c2ccccc2)c(F)c1	77
O=C(O)CCc1cc(F)c(OCc2sccc2-n2cccc2)c(F)c1	88
Cc1cc(COc2c(F)cc(CC(C)C(=O)O)cc2F)n(-c2ccc3c(c2)CCC3)n1 (stereo not drawn)	106
Cc1nc(-c2ccccc2)c(COc2c(F)cc(C3CC3C(=O)O)cc2F)s1 (stereo not drawn)	80

-- ask Could you please provide reported % Activity at 5 μM for O=C(O)C(F)(F)Cc1cc(F)c(OCc2snnc2-c2ccc(Cl)cc2)c(F)c1 ? Thanks!
-- reply 96

-- ask Give a short answer stating reported % Activity at 5 μM for Cc1onc(-c2ccccc2)c1COc1ccc2c(c1)CCC(CC(=O)O)C2 (stereo not drawn) .
-- reply 100

-- ask Quick one: give measured % Activity at 5 μM for CC(Cc1cc(F)c(OCc2c(C(F)(F)F)nn(C)c2Oc2ccc(Cl)cc2)c(F)c1)C(=O)O (stereo not drawn)
-- reply 118

-- ask Write down % Activity at 5 μM measured for item CCc1ccc(-n2nc(C(F)(F)F)cc2COc2c(F)cc(CC(C)C(=O)O)cc2F)cc1 (stereo not drawn)
-- reply 97

-- ask Entry O=C(O)CCc1cc(F)c(OCc2cnnn2-c2ccccc2)c(F)c1 needs its % Activity at 5 μM filled in; supply it.
-- reply 64

-- ask Dear colleague, please send me the reported % Activity at 5 μM for Cc1cc(COc2c(F)cc(CC(C)(C)C(=O)O)cc2F)n(-c2ccc(Cl)cc2)n1 when you can.
-- reply 100

-- ask Tell us which % Activity at 5 μM value is on record for CCc1ccc(-n2nc(C)cc2COc2c(F)cc(CCCC(=O)O)cc2F)cc1
-- reply 103

-- ask Respond only with % Activity at 5 μM recorded for Cc1onc(-c2ccccc2)c1C(=O)COc1c(F)cc(CCC(=O)O)cc1F
-- reply 100

-- ask Please look at this molecule and report its % Activity at 5 μM: COc1cc(CC(C)C(=O)O)ccc1OCc1cc(C)nn1-c1ccc(Cl)cc1 (stereo not drawn)
-- reply 83

-- ask Supply % Activity at 5 μM value. Item: CCc1ccc(-n2nc(C)cc2COc2ccc3c(c2)CCC3CC(=O)O)cc1 (stereo not drawn)
-- reply 94

-- ask Tell me measured % Activity at 5 μM for Cc1onc(-c2ccccc2)c1COc1c(F)cc(COCC(=O)O)cc1F please.
-- reply 74

-- ask Write down % Activity at 5 μM measured for item CO/N=C(/CCC(=O)O)c1ccc(OCc2snnc2-c2ccc(Cl)cc2)cc1
-- reply 54

From: patent US20100216827A1
